Cited source: PubChem BioAssay (NCATS)

Tested on: DIV14
Assay: qHTS profiling for inhibitors of Plasmodium falciparum proliferation (AID 504749); note: nearly all actives have a fitted effect of over 60% in size
Details: P. falciparum in erythrocytes, SYBR Green DNA, 72 h; series mostly up to 28.7 µM
Procedure: NIH National Institute of Allergy and Infectious Diseases [NIAID] NIH Chemical Genomics Center [NCGC] […] Because mature erythrocytes lack DNA, only Plasmodium-derived DNA is detected. NCGC Assay Protocol Summary: The SYBR Green viability assay was adapted from a method described previously (Plouffe et al., 2008). […] The following morning, fluorescence intensity at 485(14) nm excitation and 535(25) nm emission wavelengths was measured on an EnVision (Perkin Elmer) plate reader. […]
Results filed as inconclusive are left out. Activity calls are given as the source filed them. Calls come from the whole dose curve; as a rule, active = well fitted inhibition curve with a large enough effect; inconclusive = small, poorly fitted or top-dose-only effect; inactive = flat fitted curve, though single readings scatter.
The reply should name one outcome from yes (1) (active), no (0) (inactive)

c1ccc(OCc2ccc(CCCN3CCOCC3)cc2)cc1 : yes (1)
CCCCCC=CCC=CCCCCCCCC(=O)OCC : no (0)
Cc1c(C)n(CCN(C)C)c2ccc(C(=O)OCCN(C)C)cc12 : no (0)

Now consider a different molecule.
For this molecule, state the assay outcome: CCN1CCN(c2cc3c(cc2F)c(=O)c(C(=O)O)cn3C2CC2)CC1
no (0)
